system.under.test: HA-F684A CaSR mutant (Rattus norvegicus, UniProt P48442, F684A)
Construct: mGluR5 signal peptide (N); expressed in transfected cells; host or cells: HEK293T
Sequence (P48442 20-1079 F684A): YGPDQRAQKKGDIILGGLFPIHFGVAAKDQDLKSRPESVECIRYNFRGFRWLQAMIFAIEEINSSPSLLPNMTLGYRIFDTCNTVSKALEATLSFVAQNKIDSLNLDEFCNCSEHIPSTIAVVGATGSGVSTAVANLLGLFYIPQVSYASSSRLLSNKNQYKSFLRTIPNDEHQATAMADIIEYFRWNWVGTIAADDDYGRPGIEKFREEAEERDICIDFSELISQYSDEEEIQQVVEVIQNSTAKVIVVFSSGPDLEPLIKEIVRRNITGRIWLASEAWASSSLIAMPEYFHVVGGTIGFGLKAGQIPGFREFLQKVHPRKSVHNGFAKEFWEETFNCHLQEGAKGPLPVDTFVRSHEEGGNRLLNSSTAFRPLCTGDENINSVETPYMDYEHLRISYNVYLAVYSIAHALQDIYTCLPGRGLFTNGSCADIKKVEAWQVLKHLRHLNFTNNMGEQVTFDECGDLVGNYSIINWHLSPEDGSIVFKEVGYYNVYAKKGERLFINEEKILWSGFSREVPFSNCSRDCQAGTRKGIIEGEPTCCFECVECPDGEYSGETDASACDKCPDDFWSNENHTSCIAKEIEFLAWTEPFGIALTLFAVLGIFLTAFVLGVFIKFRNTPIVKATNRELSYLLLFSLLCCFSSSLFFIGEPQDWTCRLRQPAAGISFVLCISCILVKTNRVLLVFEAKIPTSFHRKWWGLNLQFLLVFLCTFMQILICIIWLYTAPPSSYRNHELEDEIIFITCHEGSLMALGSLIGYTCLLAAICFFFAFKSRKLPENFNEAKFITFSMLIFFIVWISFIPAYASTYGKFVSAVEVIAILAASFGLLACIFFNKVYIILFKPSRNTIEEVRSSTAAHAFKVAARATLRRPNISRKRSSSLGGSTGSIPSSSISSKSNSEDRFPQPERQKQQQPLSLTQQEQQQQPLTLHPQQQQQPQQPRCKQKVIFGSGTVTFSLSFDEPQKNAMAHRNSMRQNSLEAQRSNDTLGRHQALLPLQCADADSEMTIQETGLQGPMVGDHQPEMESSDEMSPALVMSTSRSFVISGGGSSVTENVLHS
experiment.summary: IP-One assay, HEK293T transiently transfected
Format: cell-based
recorded.conditions: Ca^2+ with 5 μM NPS 2143
measurement.kind: EC50

Quote EC50 reported for [Ca+2] please.
8.17 mM

----------
system.under.test: HA-D190A CaSR mutant (Rattus norvegicus, UniProt P48442, D190A)
Construct: mGluR5 signal peptide (N); expressed in transfected cells; host or cells: HEK293T
Sequence (P48442 20-1079 D190A): as the sequence (P48442 20-1079 F684A) above, with D171A, A665F counted along it
experiment.summary: IP-One assay, HEK293T transiently transfected
Type: cell-based
recorded.conditions: Ca^2+ alone
measurement.kind: EC50 (mM)
Write down the numeric answer in mM and omit the unit.

Query EC50 for [Ca+2] [Ca^2+]
17.8
